Data provenance: the supplement of paper PMC4466140

# Target system: ScMyo3
# Test name: SPOT peptide array binding signal intensity (averaged, normalized) (arbitrary units (background-subtracted, floor 0; scale differs between SH3 domains)); higher = stronger binding of the SH3 domain to the peptide
Observable: SPOT peptide array binding signal intensity

[[record]]
binder = "KRKRRLPVSEDTNTK"
sign_qualifier = "="
readout_number = 5.75

[[record]]
binder = "KRRAPPPVPKKPSSR"
sign_qualifier = "="
readout_number = 439

[[record]]
binder = "ANNQGPPNLPARDKS"
sign_qualifier = "≤"
readout_number = 0

[[record]]
binder = "RTRRRPPPPPIPSTQ"
sign_qualifier = "="
readout_number = 940

[[record]]
binder = "PPIPNAPLSPAPAVP"
sign_qualifier = "="
readout_number = 2660

[[record]]
binder = "GLRRARYKFPGQQKI"
sign_qualifier = "="
readout_number = 2

[[record]]
binder = "LYKRKPILLPDPKPL"
sign_qualifier = "≤"
readout_number = 0

